- Tested on: THRa homodimer (NR concentration 90 nM)
- assay_explanation: PBM binding z-score (relative to random genomic background probes); higher = stronger binding; sequences stand for … in GC…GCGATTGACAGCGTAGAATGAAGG
Reported PBM binding z-score values are given for each entry in this list.
quantity_measured: PBM binding z-score

seq_text	quantity_measured	quantitative_result
TCTTATAGGTAAAAGGTGAAAGTCGGTGTGGTAA	PBM binding z-score	0.525
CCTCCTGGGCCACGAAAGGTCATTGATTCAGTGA	PBM binding z-score	0.846
CCTCGGTGGACAACAGGAGGTCAGAGCTGCCAGA	PBM binding z-score	0.341
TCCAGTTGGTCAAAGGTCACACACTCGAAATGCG	PBM binding z-score	2.47
GCAGACAGGTGAAACGCAGCTAACTCAGGGTGGC	PBM binding z-score	-0.872
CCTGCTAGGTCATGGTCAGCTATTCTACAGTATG	PBM binding z-score	1.28
CGTCAAAGTTCAAGGTAACGTCACAGAAAGCAGC	PBM binding z-score	1.48
TTACCAAGGAGAGCTGAGGTCGTTGATCCAACTC	PBM binding z-score	1.2
ATATCAAGGTGATCGTGAGGTCGTTGATACTAAC	PBM binding z-score	2.27
CCTAGCAGGCCAATCTGGGTCACTAAAGGCTTGA	PBM binding z-score	0.446
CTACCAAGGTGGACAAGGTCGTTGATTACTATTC	PBM binding z-score	0.933
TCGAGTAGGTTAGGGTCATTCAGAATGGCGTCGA	PBM binding z-score	2.62
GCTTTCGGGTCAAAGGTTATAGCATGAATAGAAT	PBM binding z-score	2.14
AGAATGAGGTTATACGTTGATCAGGGAAGAAAGT	PBM binding z-score	0.901
GCGACTGGGGTATCAGCAGGTTACCATAACTTAA	PBM binding z-score	-0.0503
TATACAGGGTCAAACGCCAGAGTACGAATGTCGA	PBM binding z-score	0.861
GCGGCTGGGGCAAAGCAGGTTACCATAAGGTTGG	PBM binding z-score	0.108
AGAACGAGGGCACGCTGAGTTTATAGCAGAGTAG	PBM binding z-score	-0.111
ACTTATGGGTCAACGAGGTTATAGCACGCGTATA	PBM binding z-score	1.03
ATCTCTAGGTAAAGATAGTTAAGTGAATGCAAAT	PBM binding z-score	-0.211
CTCGAAAGGTCGGTTGAGGTGAGTAGACGGATAA	PBM binding z-score	1.3
CTACCAAGGTGAACAATGTCGTTGATTACTATTC	PBM binding z-score	1.01
ATCTCTAGGTAAGACTCGGTTCAGTGAAGAACGC	PBM binding z-score	0.875
TAGCCTAGGTCAGATCGGGCCCGTATACGCTATA	PBM binding z-score	0.0174
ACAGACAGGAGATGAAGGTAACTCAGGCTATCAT	PBM binding z-score	0.773
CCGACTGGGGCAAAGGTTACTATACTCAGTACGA	PBM binding z-score	-0.197
